Data origin, for the record: patent US20230265187A1

Target: T1, His-tagged cynomolgus monkey TIGIT (Acro Biosystems #TIT-05223) (cynomolgus monkey, UniProt A0A7N9I9V4 89-209)
T1 construct: Bought protein; also called cyno TIGIT; cynomolgus TIGIT; not shown: His tag
T1 sequence (A0A7N9I9V4 entry or part of it): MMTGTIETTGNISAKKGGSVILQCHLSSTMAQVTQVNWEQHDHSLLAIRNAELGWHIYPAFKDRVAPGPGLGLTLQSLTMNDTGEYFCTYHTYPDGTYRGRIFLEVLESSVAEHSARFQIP
Experiment: SPR (Carterra LSA), scFv-Fc captured, His-TIGIT analyte
Quick reference: pKd of the listed items.
Hey, just a heads up that pKd is the negative log base 10 of the concentration in molar.

Here are 2 binders together with their reported answers.
43586p2.A03 (scFv, V domains shown) VH: EVQLLESGGGLVQPGGSLRLSCAASGFTFTSYAMSWVRQAPGKGLEWVAGISYIGRNEYYADSVKGRLTISRDNSKNTLYLQMNNLRAEDTAIYYCAKHLTGGTTDYYYYGMDVWGQGTTVTVSS VL: QSVLTQPPSASGTPGQRVTISCSGSTSNIGTSRYVHWYQQLPGTAPKLLIYFDSQRPSGVPDRFSASKSGTSASLAISGLQSEDEADYYCATWDDSLSAWVFGGGTKLTVL | 7.20
43586p2.G01 (scFv, V domains shown) VH: EVQLLESGGGLVQPGGSLRLSCAASGFTVSSNWMSWVRQAPGKGLEWVSTTSSSSWNNYTYYADSVKGRFTISRDNSKNTLYLQMNSLRAEDTAVYYCAKGSYGMDVWGQGTTVTVSS VL: QSVLTQPPSASGTPGQRVTISCSGSNSNIGAKYLYWYQQLPGTAPKLLIYLNDRRPSGVPDRFSGSKSGTSASLAISGLQSEDEADYYCAFWDDHLKGWVFGGGTKLTVL | 6.47

Moving on to the next binder.
Per the records, this binder ( 43586p1.1.A7 (scFv, V domains shown) VH: EVQLLESGGGLVQPGGSLRLSCAASGFTFTSYAMSWVRQAPGKGLEWVAGISYDGSIQYYADSVKGRLTISRDNSKNTLNLQMNSLRAGDTAVYYCAKHLTGGTTDYYYYGMDVWGQGTTVTVSS VL: QSVMTQPPSASGTPGQRVTISCSGSSSNIGTNRYVHWYKQVPGTAPKLLIYGNHQRPSGVPDRFSGSKSGTSASLAISGLQSEDEADYYCAAWDGSLSGWVFGGGTKLTVL ) has pKd equal to 7.70
